Ref: patent US20200187499A1

- Tested on: VIOTR
- ASSAY_NAME: Pre-emergence herbicidal action
- Assay type: in vivo
- APPLIED_CONDITIONS: Table 2, pre-emergence (PE), 320 g/ha, scored after 3 weeks
Returns: string. Value is 1 (yes) if measured Herbicidal action against VIOTR is below 40%, and 0 (no) if it is greater than or equal to it.

[
  {
    "COMPOUND": "Nc1cc(-c2ccc3ccsc3c2)nc(C(=O)OCc2ccccc2F)c1Cl [Example I-01]",
    "ANSWER_LABEL": "0 (no)"
  }
]

**Query** Field: below-cutoff. Rule: recorded Herbicidal action against VIOTR strictly less than 40%. Subject: Nc1cc(-c2ccc3ccoc3c2)nc(C(=O)OCc2cccc(F)c2)c1Cl [Example I-02]
**Result** 0 (no)

**Query** Would you kindly repeat that for COc1ccc(COC(=O)c2nc(-c3ccc4ccoc4c3)c(F)c(N)c2Cl)cc1 [Example I-03] ?
**Result** 0 (no)

**Query** Same read-out for Nc1cc(-c2ccc3sccc3c2)nc(C(=O)OCc2ccc(F)cc2F)c1Cl [Example I-18] ?
**Result** 1 (yes)

**Query** Subsequent entry: Nc1cc(-c2ccc3ccsc3c2)nc(C(=O)OCc2ccc(F)cc2)c1Cl [Example I-07]
**Result** 0 (no)

---

- Tested on: VIOTR
- ASSAY_NAME: Post-emergence herbicidal action
- Format: in vivo
- APPLIED_CONDITIONS: Table 5, post-emergence (PO), 320 g/ha, assessed after about 3 weeks
MEASURED_ATTRIBUTE: Herbicidal action against VIOTR

Here is how some molecules turned out for Herbicidal action against VIOTR.
[
  {
    "COMPOUND_STRUCTURE": "Nc1c(Cl)c(C(=O)OCc2cccc(C(F)(F)F)c2)nc(Cl)c1-c1ccc2sccc2c1",
    "RESULT_VALUE": "80%"
  },
  {
    "COMPOUND_STRUCTURE": "COc1ccc(COC(=O)c2nc(-c3ccc4ccoc4c3)c(F)c(N)c2Cl)c(OC)c1",
    "RESULT_VALUE": "60%"
  },
  {
    "COMPOUND_STRUCTURE": "Nc1cc(-c2ccc3occc3c2)nc(C(=O)OCc2ccc(F)c(F)c2F)c1Cl",
    "RESULT_VALUE": "100%"
  },
  {
    "COMPOUND_STRUCTURE": "Nc1c(F)c(-c2ccc3sccc3c2)nc(C(=O)OCc2ccc(Cl)cc2)c1Cl",
    "RESULT_VALUE": "10%"
  },
  {
    "COMPOUND_STRUCTURE": "Nc1c(F)c(-c2ccc3sccc3c2)nc(C(=O)OCc2ccc(F)cc2)c1Cl",
    "RESULT_VALUE": "50%"
  }
]

Continue with the next molecule.
**Query** Name the recorded Herbicidal action against VIOTR for COc1ccc(COC(=O)c2nc(-c3ccc4ccoc4c3)c(F)c(N)c2Cl)cc1 .
**Result** 100%

---

- Tested on: ABUTH
- ASSAY_NAME: Post-emergence herbicidal action
- Format: in vivo
- APPLIED_CONDITIONS: Table 6, post-emergence (PO), 320 g/ha, assessed after about 3 weeks
Reported Herbicidal action against ABUTH values are given for each entry in this list.
Give a bare numeral; the unit % is implied.

Worked set:
[
  {
    "COMPOUND": "Nc1cc(-c2ccc3occc3c2)nc(C(=O)OCc2ccc(Cl)cc2)c1Cl [Example I-31]",
    "UNIT_STRING": "%",
    "Herbicidal action against ABUTH": 100
  },
  {
    "COMPOUND": "Nc1cc(-c2ccc3occc3c2)nc(C(=O)OCc2ccc(F)cc2F)c1Cl [Example I-24]",
    "UNIT_STRING": "%",
    "Herbicidal action against ABUTH": 100
  },
  {
    "COMPOUND": "Nc1cc(-c2ccc3ccsc3c2)nc(C(=O)OCc2c(F)c(F)c(F)c(F)c2F)c1Cl [Example I-25]",
    "UNIT_STRING": "%",
    "Herbicidal action against ABUTH": 90
  }
]

**Query** Field: Herbicidal action against ABUTH (ABUTH). Entry: Nc1cc(-c2ccc3occc3c2)nc(C(=O)OCc2cccc(C(F)(F)F)c2)c1Cl [Example I-11]
**Result** 100

**Query** Would you kindly repeat that for COc1c(Cl)ccc(Cl)c1COC(=O)c1nc(-c2ccc3occc3c2)cc(N)c1Cl [Example I-57] ?
**Result** 90

**Query** How about this compound: Nc1cc(-c2ccc3ccoc3c2F)nc(C(=O)OCc2cccc(Cl)c2)c1Cl [Example I-33]
**Result** 90

---

- Test system: POLCO
- ASSAY_NAME: Post-emergence herbicidal action
- Format: in vivo
- APPLIED_CONDITIONS: Table 5, post-emergence (PO), 320 g/ha, assessed after about 3 weeks
// reported Herbicidal action against POLCO for each item listed
Record the result as a number with its unit.

[
  {
    "COMPOUND_STRUCTURE": "Nc1cc(-c2ccc3sccc3c2)nc(C(=O)OCc2ccc(F)cc2F)c1Cl",
    "EXPERIMENTAL_SYSTEM": "POLCO",
    "Herbicidal action against POLCO": "80%"
  },
  {
    "COMPOUND_STRUCTURE": "Nc1cc(-c2ccc3ccoc3c2)nc(C(=O)OCc2cccc(F)c2)c1Cl",
    "EXPERIMENTAL_SYSTEM": "POLCO",
    "Herbicidal action against POLCO": "100%"
  }
]

Now look at this one.
**Query** Need Herbicidal action against POLCO of COc1c(F)ccc(COC(=O)c2nc(-c3ccc4sccc4c3)cc(N)c2Cl)c1F , thanks.
**Result** 90%

---

- Test system: SETVI
- ASSAY_NAME: Post-emergence herbicidal action
- Assay type: in vivo
- APPLIED_CONDITIONS: Table 6, post-emergence (PO), 320 g/ha, assessed after about 3 weeks
Documented Herbicidal action against SETVI across a set of molecules
Give your result in % as a bare value.

[
  {
    "MOLECULE": "Nc1cc(-c2ccc3ccsc3c2)nc(C(=O)OCc2ccc(F)cc2F)c1Cl [Example I-12]",
    "EXPERIMENTAL_SYSTEM": "SETVI",
    "UNIT_STRING": "%",
    "Herbicidal action against SETVI": 100
  }
]

**Query** Entry Nc1cc(-c2ccc3ccsc3c2)nc(C(=O)OCc2c(F)c(F)c(F)c(F)c2F)c1Cl [Example I-25] : reported Herbicidal action against SETVI = ?
**Result** 100

**Query** Repeat for the following molecule: Nc1c(F)c(-c2ccc3ccsc3c2)nc(C(=O)OCc2ccc(Cl)cc2)c1Cl [Example I-45]
**Result** 30

**Query** Note, next up: Nc1cc(-c2ccc3ccoc3c2)nc(C(=O)OCc2ccc(F)cc2)c1Cl [Example I-26]
**Result** 100

**Query** // query: Nc1cc(-c2ccc3occc3c2)nc(C(=O)OCc2ccccc2C(F)(F)F)c1Cl [Example I-37]
**Result** 90

**Query** Nc1c(F)c(-c2ccc3ncsc3c2)nc(C(=O)OCc2ccc(Cl)cc2)c1Cl [Example I-64] , same question.
**Result** 90

**Query** Now this one: Nc1cc(-c2ccc3occc3c2)nc(C(=O)OCc2cccc(Cl)c2)c1Cl [Example I-38]
**Result** 90

**Query** And then Nc1c(F)c(-c2ccc3occc3c2)nc(C(=O)OCc2ccc(F)cc2F)c1Cl [Example I-48] , what is it?
**Result** 30

---

- Tested on: ABUTH
- ASSAY_NAME: Post-emergence herbicidal action
- Type: in vivo
- APPLIED_CONDITIONS: Table 7, post-emergence (PO), 320 g/ha, assessed after about 3 weeks
MEASURED_ATTRIBUTE: Herbicidal action against ABUTH
Record the result as number plus unit.

Here's what some known entries look like.
[
  {
    "COMPOUND_STRUCTURE": "Nc1cc(-c2ccc3ccoc3c2)nc(C(=O)OCc2ccc(F)cc2F)c1Cl",
    "MEASURED_ATTRIBUTE": "Herbicidal action against ABUTH",
    "RESULT_VALUE": "90%"
  },
  {
    "COMPOUND_STRUCTURE": "COc1c(F)ccc(COC(=O)c2nc(-c3ccc4occc4c3)cc(N)c2Cl)c1F",
    "MEASURED_ATTRIBUTE": "Herbicidal action against ABUTH",
    "RESULT_VALUE": "90%"
  },
  {
    "COMPOUND_STRUCTURE": "Nc1cc(-c2ccc3ncsc3c2)nc(C(=O)OCc2ccc(Cl)cc2)c1Cl",
    "MEASURED_ATTRIBUTE": "Herbicidal action against ABUTH",
    "RESULT_VALUE": "90%"
  },
  {
    "COMPOUND_STRUCTURE": "Nc1cc(-c2ccc3ccoc3c2)nc(C(=O)OCc2c(F)c(F)c(F)c(F)c2F)c1Cl",
    "MEASURED_ATTRIBUTE": "Herbicidal action against ABUTH",
    "RESULT_VALUE": "80%"
  },
  {
    "COMPOUND_STRUCTURE": "Nc1cc(-c2ccc3ccsc3c2)nc(C(=O)OCc2cccc(Cl)c2)c1Cl",
    "MEASURED_ATTRIBUTE": "Herbicidal action against ABUTH",
    "RESULT_VALUE": "90%"
  }
]

**Query** Entry Nc1cc(-c2ccc3ncsc3c2)nc(C(=O)OCc2cccc(Cl)c2)c1Cl , system ABUTH: what Herbicidal action against ABUTH was measured?
**Result** 90%
